Let's look at some compounds and their measured pEC50.
# EXPERIMENTAL SYSTEM: human 5-HT2C(VSV) (Homo sapiens, UniProt P28335, I156V/I160V/N158S)
# Sequence (P28335 33-458 I156V/N158S/I160V limits assumed): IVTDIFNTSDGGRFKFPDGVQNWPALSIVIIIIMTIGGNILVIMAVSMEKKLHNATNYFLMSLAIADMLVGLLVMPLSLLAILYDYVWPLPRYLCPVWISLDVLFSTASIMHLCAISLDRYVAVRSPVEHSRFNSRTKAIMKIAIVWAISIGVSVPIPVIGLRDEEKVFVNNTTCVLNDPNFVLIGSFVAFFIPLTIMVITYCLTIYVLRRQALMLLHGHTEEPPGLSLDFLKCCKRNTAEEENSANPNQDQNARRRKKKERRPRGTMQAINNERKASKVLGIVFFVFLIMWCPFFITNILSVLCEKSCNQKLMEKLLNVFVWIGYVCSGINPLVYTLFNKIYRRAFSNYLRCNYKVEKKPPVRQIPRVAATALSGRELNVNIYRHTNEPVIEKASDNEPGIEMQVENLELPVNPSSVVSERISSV
# EXPERIMENT SUMMARY: cell-based
pEC50: −log10 of the molar value.

Use these answered entries as a reference point.
{"COMPOUND": "CN(C)CCc1cn(Cc2ccccc2)c2c(F)ccc(O)c12 [7-3]", "pEC50": "5.00 to 6.30"}
{"COMPOUND": "CNCCc1cn(C)c2ccc(F)c(OCCc3ccccc3C)c12 [33-17]", "pEC50": "6.30 to 9.00"}
{"COMPOUND": "CCn1cc(CCN2CCCC2)c2c(O)cc(F)cc21 [11-6]", "pEC50": "6.30 to 9.00"}
{"COMPOUND": "CCn1cc(C2CCCN(C)C2)c2c(O)cc(F)cc21 (centres unmarked) [38-6]", "pEC50": "5.00 to 6.30"}
{"COMPOUND": "CCn1cc(CCN2CCOCC2)c2c(O)cc(F)cc21 [11-5]", "pEC50": "6.30 to 9.00"}

**Query** // returns reported pEC50 for input CNCCc1cn(C)c2ccc(F)c(OCc3ccc(C)cc3)c12 [33-27]
**Result** 6.30 to 9.00

**Query** Would you mind doing CNCCc1cn(C)c2ccc(F)c(OCCc3ccc(F)cc3)c12 [33-28] as well?
**Result** 6.30 to 9.00

* * *

Entries and their EC50 values follow.
# EXPERIMENTAL SYSTEM: human 5-HT2C(VSV) (Homo sapiens, UniProt P28335, I156V/I160V/N158S)
# EXPERIMENT SUMMARY: cell-based

{"COMPOUND": "COc1ccc(F)c2c1c(CCN1CCCC1)cn2C [11-10]", "EC50": "1 to 500 nM"}
{"COMPOUND": "CNCCc1cn(C)c2cc(F)cc(OCc3ccc(Cl)cc3)c12 [33-45]", "EC50": "1 to 500 nM"}
{"COMPOUND": "CCn1cc(CCN(C)C)c2c(OCc3ccccc3C(F)(F)F)cc(F)cc21 [1-13b]", "EC50": "500 to 10000 nM"}
{"COMPOUND": "COc1ccc(F)c2c1c(C(C)CN)cn2C (stereo not drawn) [9-5]", "EC50": "1 to 500 nM"}
{"COMPOUND": "CNCCc1cn(C)c2ccc(F)c(OCCc3ccccc3)c12 [33-26]", "EC50": "1 to 500 nM"}

Please look at the following compound next.
**Query** What measured EC50 goes with CCOc1c(F)ccc2c1c(CCNCc1cccs1)cn2C [30-28] ?
**Result** 1 to 500 nM

* * *

# EXPERIMENTAL SYSTEM: human 5-HT2C(VSV) (Homo sapiens, UniProt P28335, I156V/I160V/N158S)
# EXPERIMENT SUMMARY: cell-based
METRIC: EC50

Record excerpt, results attached:
{"COMPOUND": "CCn1cc(CCNCCc2ccccc2)c2c(O)cc(F)cc21", "EXPERIMENTAL SYSTEM": "human 5-HT2C(VSV) (Homo sapiens, UniProt P28335, I156V/I160V/N158S)", "OBSERVED RESULT": "1 to 500 nM"}
{"COMPOUND": "CCn1cc(CCNCc2ccccc2)c2c(OC)ccc(F)c21", "EXPERIMENTAL SYSTEM": "human 5-HT2C(VSV) (Homo sapiens, UniProt P28335, I156V/I160V/N158S)", "OBSERVED RESULT": "1 to 500 nM"}
{"COMPOUND": "CNCCc1cn(C)c2cc(F)cc(OCc3cccc(Cl)c3)c12", "EXPERIMENTAL SYSTEM": "human 5-HT2C(VSV) (Homo sapiens, UniProt P28335, I156V/I160V/N158S)", "OBSERVED RESULT": "1 to 500 nM"}
{"COMPOUND": "CNCCc1cn(C)c2ccc(F)c(OCCc3ccc(Cl)cc3)c12", "EXPERIMENTAL SYSTEM": "human 5-HT2C(VSV) (Homo sapiens, UniProt P28335, I156V/I160V/N158S)", "OBSERVED RESULT": "1 to 500 nM"}
{"COMPOUND": "CCn1cc(CCN(C)C)c2c(OCc3ccc(F)cc3)cc(F)cc21 [1-14b]", "EXPERIMENTAL SYSTEM": "human 5-HT2C(VSV) (Homo sapiens, UniProt P28335, I156V/I160V/N158S)", "OBSERVED RESULT": "1 to 500 nM"}

**Query** Entry under review: CCOc1c(F)ccc2c1c(CCNCc1cccc(C)c1)cn2C . Reported EC50?
**Result** 1 to 500 nM

**Query** Would you kindly repeat that for CCn1cc(CCNCc2ccccc2)c2c(OC)cc(F)cc21 ?
**Result** 1 to 500 nM

**Query** Same for CN(C)CCc1cn(C)c2ccc(F)c(OCCc3ccccc3)c12
**Result** 1 to 500 nM

**Query** Also need CN(C)CCc1cn(Cc2ccc3ccccc3c2)c2c(F)ccc(OCc3ccccc3)c12 , thanks.
**Result** 1 to 500 nM

* * *

# EXPERIMENTAL SYSTEM: human 5-HT2C(VSV) (Homo sapiens, UniProt P28335, I156V/I160V/N158S)
# EXPERIMENT SUMMARY: cell-based
METRIC: EC50

Field: example entries. Status: answers known.
{"COMPOUND": "CNCCc1cn(C)c2cc(F)cc(OCc3ccccc3Cl)c12", "EC50": "1 to 500 nM"}
{"COMPOUND": "CNCCc1cn(C)c2ccc(F)c(OCc3ccc(S(C)(=O)=O)cc3)c12", "EC50": "1 to 500 nM"}
{"COMPOUND": "CCn1cc(CCNCc2cccc(Cl)c2)c2c(O)cc(F)cc21", "EC50": "1 to 500 nM"}
{"COMPOUND": "CCn1cc(CCN(C)CCc2cn(CC)c3cc(F)cc(OC)c23)c2c(OC)cc(F)cc21", "EC50": "1 to 500 nM"}
{"COMPOUND": "CCn1cc(CCNCc2ccccc2C)c2c(OC)ccc(F)c21", "EC50": "1 to 500 nM"}

**Query** What does the record list as EC50 for CCn1cc(CCN(C)C)c2c(OCc3cccc(C(F)(F)F)c3)cc(F)cc21 [1-16b] ?
**Result** 500 to 10000 nM

**Query** Then this compound: CN(C)CCc1cn(Cc2ccccc2)c2c(F)ccc(OCc3ccccc3)c12
**Result** 500 to 10000 nM

**Query** Thanks! And CCn1cc(CCN2CCCOCC2)c2c(O)cc(F)cc21 ?
**Result** 500 to 10000 nM

**Query** Now consider CCOc1c(F)ccc2c1c(CCNC1Cc3ccccc3C1)cn2C and answer again.
**Result** 1 to 500 nM

**Query** # iterate: CCn1cc(CCN(C)Cc2ccccc2)c2c(OCc3ccccc3)cc(F)cc21
**Result** 1 to 500 nM

* * *

# EXPERIMENTAL SYSTEM: human 5-HT2C(VSV) (Homo sapiens, UniProt P28335, I156V/I160V/N158S)
# EXPERIMENT SUMMARY: cell-based
METRIC: EC50

Below, 4 compounds whose answers are already recorded.
{"COMPOUND": "CCn1cc(CCN(C)C)c2c(OC)c(CCCO)cc(F)c21", "EXPERIMENTAL SYSTEM": "human 5-HT2C(VSV) (Homo sapiens, UniProt P28335, I156V/I160V/N158S)", "EC50": "1 to 500 nM"}
{"COMPOUND": "COc1c(F)ccc2c1c(CCNC(C)c1ccccc1)cn2C (centres unmarked)", "EXPERIMENTAL SYSTEM": "human 5-HT2C(VSV) (Homo sapiens, UniProt P28335, I156V/I160V/N158S)", "EC50": "1 to 500 nM"}
{"COMPOUND": "COc1ccc(CCCO)c2c1c(CCN(C)C)cn2C", "EXPERIMENTAL SYSTEM": "human 5-HT2C(VSV) (Homo sapiens, UniProt P28335, I156V/I160V/N158S)", "EC50": "500 to 10000 nM"}
{"COMPOUND": "CNCCc1cn(C)c2c(F)cc(CCc3ccccc3)c(OC)c12", "EXPERIMENTAL SYSTEM": "human 5-HT2C(VSV) (Homo sapiens, UniProt P28335, I156V/I160V/N158S)", "EC50": "500 to 10000 nM"}

The record that follows has no EC50 shown yet.
**Query** Recorded EC50 for CNCCc1cn(C)c2ccc(F)c(OCc3ccccc3OC(F)(F)F)c12 , please?
**Result** 1 to 500 nM
